test: In vivo biodistribution of radiolabeled complexes in normal athymic mice; settings: non-tumor bearing mice, 1.00 hr; ± SD
Measured parameter: percent injected dose per gram, Liver

1. O=C([O-])CNC(Cc1ccc([N+](=O)[O-])cc1)CN1CCN(CC(=O)[O-])CCN(CC(=O)[O-])CC1.[Bi+3] (stereo not shown) [^205/6Bi-C-NE3TA] = 0.80 ± 0.16 % ID/g
2. O=C(O)CNC(Cc1ccc([N+](=O)[O-])cc1)CN1CCN(CC(=O)O)CCN(CC(=O)O)CC1.[153Gd] (stereo not shown) [^153Gd-C-NE3TA] = 0.58 ± 0.22 % ID/g
3. O=C(O)CNC(Cc1ccc([N+](=O)[O-])cc1)CN1CCN(CC(=O)O)CCN(CC(=O)O)CC1.[90Y] (stereo not shown) [^90Y-C-NE3TA] = 0.88 ± 0.59 % ID/g
4. O=C(O)CNC(Cc1ccc([N+](=O)[O-])cc1)CN1CCN(CC(=O)O)CCN(CC(=O)O)CC1.[177Lu] (stereo not shown) [^177Lu-C-NE3TA] = 0.69 ± 0.20 % ID/g
